Biological target: c-Met (cytoplasmic domain) (Homo sapiens, UniProt P08581)
Construct: 10 ng/mL c-Met (cytoplasmic domain, Invitrogen Corporation #PV3143); purchased Invitrogen Corporation PV3143
Sequence (P08581 956-1390 limits assumed): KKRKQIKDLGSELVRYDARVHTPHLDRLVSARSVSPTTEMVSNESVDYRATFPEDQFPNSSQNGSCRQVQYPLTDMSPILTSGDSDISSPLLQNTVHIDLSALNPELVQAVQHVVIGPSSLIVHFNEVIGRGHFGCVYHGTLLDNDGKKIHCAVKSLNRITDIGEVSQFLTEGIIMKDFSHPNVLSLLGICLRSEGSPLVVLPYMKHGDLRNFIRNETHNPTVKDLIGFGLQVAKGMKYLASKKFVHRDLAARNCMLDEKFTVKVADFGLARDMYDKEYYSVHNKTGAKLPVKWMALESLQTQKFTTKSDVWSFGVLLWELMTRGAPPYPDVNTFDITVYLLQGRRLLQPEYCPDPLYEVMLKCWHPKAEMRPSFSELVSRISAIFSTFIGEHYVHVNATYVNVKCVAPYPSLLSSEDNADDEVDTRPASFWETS
Assay: c-Met Kinase Assay (same methods as for ALK, with modifications)
Format: biochemical
Conditions: 1 μM ATP (Km level), 10 ng/mL c-Met; read-out: cMet Activity (c-Met kinase inhibition, IC50 class)
pIC50: −log10 of the molar value.
PARAMETER: pIC50

[[record]]
compound = "CC(C)S(=O)(=O)c1ccccc1Nc1nc(Nc2ccc3c(c2)CCC(O)CC3)ncc1Cl (stereo not shown) [Example 1037]"
parameter = "pIC50"
result = "6.00 to 7.00"

[[record]]
compound = "CC(C)S(=O)(=O)c1cccc(F)c1Nc1nc(Nc2ccc3c(c2)C(C)(C)CCC(=O)N3)ncc1Cl [Example 1254]"
parameter = "pIC50"
result = "5.00 to 6.00"

[[record]]
compound = "COc1ccc2c(c1Nc1ncc(Cl)c(N[C@@H]3CCCC[C@H]3NS(C)(=O)=O)n1)CCC(N1CCOCC1)CC2 (stereo partly shown) [Example 1070]"
parameter = "pIC50"
result = "< 5.00"

[[record]]
compound = "CNC(=O)c1ccccc1Nc1nc(Nc2ccc3c(c2)CNC(=O)CCN3C(=O)C(F)(F)F)ncc1Cl [Example 1301]"
parameter = "pIC50"
result = "> 7.00"

[[record]]
compound = "COCCOc1ccc(Nc2nc(Nc3cc4c(cc3OC)CCN(Cc3nccn3C)CC4)ncc2Cl)c(OC)c1 [Example 1175]"
parameter = "pIC50"
result = "< 5.00"


*Q* Please report the measured pIC50 for COCCN1CCc2ccc(Nc3ncc(Cl)c(Nc4ccccc4C(=O)NCC4CC4)n3)cc2CC1 [Example 1421]
*A* 5.00 to 6.00

*Q* Please give the documented pIC50 of COc1cc2c(cc1Nc1ncc(Cl)c(Nc3ccccc3S(=O)(=O)N3CC[C@H](O)C3)n1)CCN(CC(=O)N(C)C)CC2 [Example 1206]
*A* 5.00 to 6.00
